experimental.system: T1, biotin-labeled mouse ADM (mouse, not fully specified; biotin label (named mouse ADM-C-biotin in Example 1.4; position of the biotin not stated for the other lots))
T1 construct: Synthetic peptide; also called mouse ADM-C-biotin; mADM-Biotin
T1 peptide: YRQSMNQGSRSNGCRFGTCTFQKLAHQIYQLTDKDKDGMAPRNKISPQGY
method: BLI (Octet RED96e), as in Example 3
Exercise: state measured pKd for each of the binders provided.
Numbers only, as −log10 of the molar value.

# example entries with known answers
| binder | numeric.readout |
| --- | --- |
| Ab2004.Am31 (IgG1 antibody) (antibody, V domains shown, Expressed in CHO cells, human IgG1/kappa) VH: QVQLVQSGAEVKKPGASVKVSCKASGYTFTQYGIAWVRQAPGQGLEWMGWISAYQGNTNYAQKLQGRVTMTRDTSTSTAYMELRSLRSDDTAVYYCAREGRWGGSFNIWGQGTMVTVSS VL: DIQMTQSPSSLSASVGDRVTITCRASEGISEYLAWYQQKPGKAPKLLIYDASNLETGVPSRFSGSGSGTDFTFTISSLQPEDIATYYCQQYDNLPLTFGGGTKVEIKR | 9.39 |
| Ab2004.Am40 (IgG1 antibody) (antibody, V domains shown, Expressed in CHO cells, human IgG1/kappa) VH: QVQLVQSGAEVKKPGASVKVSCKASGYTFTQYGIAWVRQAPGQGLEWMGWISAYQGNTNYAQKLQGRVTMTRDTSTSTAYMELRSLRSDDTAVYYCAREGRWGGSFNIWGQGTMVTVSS VL: DIQMTQSPSSLSASVGDRVTITCRASQGISSYLAWYQQKPGKAPKLLIYDASNLETGVPSRFSGSGSGTDFTFTISSLQPEDIATYYCQQYDDLPLSFGGGTKVEIKR | 9.31 |
| Ab2004.Am34 (IgG1 antibody) (antibody, V domains shown, Expressed in CHO cells, human IgG1/kappa) VH: QVQLVQSGAEVKKPGASVKVSCKASGYTFTHYGIAWVRQAPGQGLEWMGWISAYQGNTNYAQKLQGRVTMTRDTSTSTAYMELRSLRSDDTAVYYCAREGRWGGSFNIWGQGTMVTVSS VL: DIQMTQSPSSLSASVGDRVTITCRASQGISSYLAWYQQKPGKAPKLLIYDVSILDAGVPSRFSGSGSGTDFTFTISSLQPEDIATYYCQQYDNLPLTFGGGTKVEIKR | 9.35 |
| Enibarcimab (antibody, V domains shown) VH: QVQLVQSGAEVKKPGSSVKVSCKASGYTFSRYWIEWVRQAPGQGLEWIGEILPGSGSTNYNQKFQGRVTITADTSTSTAYMELSSLRSEDTAVYYCTEGYEYDGFDYWGQGTTVTVSS VL: DVVLTQSPLSLPVTLGQPASISCRSSQSIVYSNGNTYLEWYLQRPGQSPRLLIYRVSNRFSGVPDRFSGSGSGTDFTLKISRVEAEDVGVYYCFQGSHIPYTFGGGTKLEIKR | 9.30 |

Consider now this further binder.
-- ask Sample Ab2004.Am37 (IgG1 antibody) (antibody, V domains shown, Expressed in CHO cells, human IgG1/kappa) VH: QVQLVQSGAEVKKPGASVKVSCKASGYTFTSYGISWVRQAPGQGLEWMGWISPYTGKTNYAQKLQGRVTMTRDTSTSTAYMELRSLRSDDTAVYYCAREGRWGGSFNIWGQGTMVTVSS VL: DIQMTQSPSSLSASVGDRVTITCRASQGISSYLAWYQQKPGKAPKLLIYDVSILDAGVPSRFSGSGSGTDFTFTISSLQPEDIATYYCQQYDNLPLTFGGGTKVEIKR — what was its pKd?
-- reply 9.33

Numbers sourced from patent US20260035456A1.
